# Test system: MILI (PIWIL2) piRISC loaded with L1MC piRNA (26 nt);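 note: 1 nM active piRISC with 0.1 nM target library at 33 °C single turnover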
# protocolText: pre-steady-state target cleavage rate (min^-1); guide: L1MC piRNA 5'p-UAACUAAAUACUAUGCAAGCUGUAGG; MIWI and MILI are mouse PIWI proteins and EfPiwi is from a freshwater sponge; tags in brackets are library labels; higher = faster piRNA-guided slicing of the target
# appliedConditions: auxiliary factor: none (no GTSF1)
Give T when the value for pre-steady-state target cleavage rate is at least 0.005. Give F when it is less.

UCCUGGAUGUCGAACGUUAGUAAUUUGUUA    F

QUERY: Check the entry `UCCUCCUCCAGCUUGCAUAGUAUUUAGUUA` : does pre-steady-state target cleavage rate equal or exceed 0.005?
RESULT: T

QUERY: Could you please find out whether `UCCUCCUACAGCUUUGCAUAGUAUUUAGUUA` has pre-steady-state target cleavage rate that meets 0.005 or exceeds it?
RESULT: T

QUERY: Confirm if pre-steady-state target cleavage rate reported for the sequence `UCCUGGUACAGCUUGCAUAGUAUUUAGUCA` is 0.005 or above.
RESULT: T

QUERY: Quick check, pre-steady-state target cleavage rate >= 0.005? `UCCUGCUACAGCUUGCAUAGUAUAUAGUUA`
RESULT: F

QUERY: State whether the measured pre-steady-state target cleavage rate reaches 0.005, counting equality as reaching it, for `UCCUGGAUCACCUUGGAUAGUAUUUAGUUA`
RESULT: T

Cited source for all entries: the supplement of paper PMC10338343
